# Target Or System: RET(KD: 658-1114 G810R) (Homo sapiens, UniProt P07949, G810R)
# Construct: 658-1114; expressed in transfected cells; host or cells: 293T.165 (293T cells, generated in-house)
# Protocol Notes: HiBiT-Degradation, RET G810R degradation assay (Nano-Glo HiBiT Lytic), 293T.165 cells
# Format: cell-based
# Recorded Conditions: 6.0 hours, half-maximal degradation concentration, read-out: 293T.165 RET(KD: 658-1114 G810R) 6.0 hours (DC50)
Parameter Measured: DC50

Record CO[C@@H](C(=O)N1CCN(c2ccc(-c3nc(-c4cnn([C@H]5CC[C@@H](N6CCN(c7c(F)cc(NC8CCC(=O)NC8=O)cc7F)CC6)CC5)c4)cn4ncc(C#N)c34)cn2)CC1)c1ccccc1 (single isomer, unassigned) [Compound 201] , field DC50: < 50 nM

Here's the next entry for you.
// sample CCC1(C(=O)NC2CCC2)CCN(c2ccc(-c3nc(-c4cnn([C@H]5CC[C@H](N6CCC(c7ccc(NC8CCC(=O)NC8=O)cc7)CC6)CC5)c4)cn4ncc(C#N)c34)cn2)CC1 (single isomer, unassigned) [Compound 126] , its DC50 was < 50 nM

---

# Target Or System: RET(KD: 658-1114 G810R) (Homo sapiens, UniProt P07949, G810R)
# Construct: 658-1114; expressed in transfected cells; host or cells: 293T.165 (293T cells, generated in-house)
# Sequence (P07949 658-1114 G810R): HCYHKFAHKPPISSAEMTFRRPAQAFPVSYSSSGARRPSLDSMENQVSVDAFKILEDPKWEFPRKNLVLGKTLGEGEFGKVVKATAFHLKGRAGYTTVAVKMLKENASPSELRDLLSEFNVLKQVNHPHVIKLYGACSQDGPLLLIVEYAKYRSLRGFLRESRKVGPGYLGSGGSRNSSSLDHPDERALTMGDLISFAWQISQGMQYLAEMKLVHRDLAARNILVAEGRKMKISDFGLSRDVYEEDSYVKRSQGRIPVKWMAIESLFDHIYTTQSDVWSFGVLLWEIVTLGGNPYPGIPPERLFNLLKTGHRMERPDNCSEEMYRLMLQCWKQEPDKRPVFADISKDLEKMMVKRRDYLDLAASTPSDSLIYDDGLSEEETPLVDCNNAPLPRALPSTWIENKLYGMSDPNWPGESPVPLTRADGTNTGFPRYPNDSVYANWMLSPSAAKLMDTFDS
# Protocol Notes: HiBiT-Degradation, RET G810R degradation assay (Nano-Glo HiBiT Lytic), 293T.165 cells
# Format: cell-based
# Recorded Conditions: HiBiT-Degradation, 6.0 hours, read-out: 293T.165 RET(KD: 658-1114 G810R) 6.0 hours (DC50)
# Protocol: Dulbecco's modified Eagle medium (DMEM) no-phenol red media and fetal bovine serum (FBS) were purchased from Gibco (Grand Island, NY, USA). […] RET wild-type (WT) and G810R degradation were assessed using the Nano-Glo® HiBiT Lytic assay (Promega, Medison, WI, USA). […] Luminescence signal was measured using an EnVision™ Multimode plate reader (Perkin Elmer, Santa Clara, CA, USA). […]
Provide the recorded DC50 for the entries that follow.

Need DC50 for each of these compounds.
1. CC(C)NC(=O)C1(C)CCN(c2ccc(-c3cc(-c4ccc(N5CCN(C(=O)CN6CCC(c7ccc(NC8CCC(=O)NC8=O)cc7F)CC6)CC5)cc4)cn4ncc(C#N)c34)cc2)CC1 (centres unmarked)
2. CCC1(C(=O)NC(C)C)CCN(c2ccc(-c3cc(-c4cnn(C5CCN(C(=O)CN6CCC(c7ccc(NC8CCC(=O)NC8=O)cc7F)CC6)CC5)c4)cn4ncc(C#N)c34)cn2)CC1 (centres unmarked)
3. CCC1(C(=O)NC(C)C)CCN(c2ccc(-c3nc(-c4cnn(C5CCN(C(=O)CC6(O)CCN(c7ccc(NC8CCC(=O)NC8=O)cc7Cl)CC6)CC5)c4)cn4ncc(C#N)c34)cn2)CC1 (centres unmarked)
4. CCC1(C(=O)NC(C)C)CCN(c2ncc(-c3cc(-c4cnn(C5CCN(C(=O)CN6CCC(c7ccc(NC8CCC(=O)NC8=O)cc7F)CC6)CC5)c4)cn4ncc(C#N)c34)cn2)CC1 (centres unmarked)
5. CC1(NC(=O)Cc2ccccc2)CCN(c2ccc(-c3cc(-c4ccc(N5CCN(C(=O)CN6CCC(c7ccc(NC8CCC(=O)NC8=O)cc7F)CC6)CC5)cc4)cn4ncc(C#N)c34)cn2)CC1 (centres unmarked)

["< 100 nM", "< 50 nM", "< 50 nM", "< 100 nM", "< 100 nM"]

List reported DC50 for each of these compounds:
1. N#Cc1cnn2cc(-c3ccc(N4CCN(C(=O)CN5CCC(c6ccc(NC7CCC(=O)NC7=O)cc6)CC5)CC4)cc3)cc(-c3ccc(N4CCN(CCc5ccccn5)CC4)nc3)c12 (centres unmarked)
2. N#Cc1cnn2cc(-c3cnn([C@H]4CC[C@H](CCN5CCC(c6ccc(NC7CCC(=O)NC7=O)cc6F)CC5)CC4)c3)nc(-c3ccc(N4CCN(C(=O)Cc5ccc(F)cn5)CC4)nc3)c12 (some centres unmarked)
3. CCC1(C(=O)NC(C)C)CCN(c2ccc(-c3cc(-c4cnn(C5CCN(C(=O)CN6CCC(c7ccc8c(N9CCC(=O)NC9=O)nn(C)c8c7)CC6)CC5)c4)cn4ncc(C#N)c34)cn2)CC1
4. CC(C)NC(=O)C1(C)CCN(c2ccc(-c3cc(-c4ccc(N5CCN(C(=O)CN6CCC(c7ccc(OC8CCC(=O)NC8=O)cc7)CC6)CC5)cc4)cn4ncc(C#N)c34)cn2)CC1 (centres unmarked)
5. CN(C)c1ccc(-c2cc(-c3cnn([C@H]4CC[C@@H](CCN5CCC(c6ccc(NC7CCC(=O)NC7=O)cc6)CC5)CC4)c3)cn3ncc(C#N)c23)cn1 (some centres unmarked)
6. N#Cc1cnn2cc(-c3ccc(N4CCN(C(=O)CN5CCC(c6ccc(NC7CCC(=O)NC7=O)cc6)CC5)CC4)cc3)cc(-c3ccc(N4CCOCC4)nc3)c12 (centres unmarked)
7. N#Cc1cnn2cc(-c3cnn(C4CCN(C(=O)CN5CCC(c6ccc(NC7CCC(=O)NC7=O)cc6F)CC5)CC4)c3)cc(-c3ccc(N4CCC(Nc5ccccc5)CC4)nc3)c12 (centres unmarked)

1. < 100 nM
2. < 50 nM
3. < 100 nM
4. < 100 nM
5. < 100 nM
6. < 100 nM
7. < 100 nM

For every record below, what is its DC50?
1. CC(C)(C)NC(=O)C1(C)CCN(c2ccc(-c3cc(-c4ccc(N5CCN(C(=O)CN6CCC(c7ccc(NC8CCC(=O)NC8=O)cc7F)CC6)CC5)cc4)cn4ncc(C#N)c34)cn2)CC1 (centres unmarked)
2. CCC1(C(=O)NC(C)C)CCN(c2ccc(-c3cc(-c4ccc(N5CCN(C(=O)CN6CCC(c7ccc8c(N9CCC(=O)NC9=O)nn(C)c8c7)CC6)CC5)cc4)cn4ncc(C#N)c34)cn2)CC1
3. CC(=O)N1CCN(c2ccc(-c3cc(-c4cnn(C5CCN(C(=O)CN6CCC(c7ccc(NC8CCC(=O)NC8=O)cc7)CC6)CC5)c4)cn4ncc(C#N)c34)cn2)CC1 (centres unmarked)
4. CC(=O)N1CCN(c2ccc(-c3nc(-c4ccc(N5CCN(C(=O)CN6CCC(c7ccc(NC8CCC(=O)NC8=O)cc7)CC6)CC5)cc4)cn4ncc(C#N)c34)cn2)CC1 (centres unmarked)
5. N#Cc1cnn2cc(-c3ccc(N4CCN(C(=O)CN5CCC(c6ccc(NC7CCC(=O)NC7=O)cc6F)CC5)CC4)cc3)cc(-c3ccc(N4CCN(Cc5ccccn5)CC4)nc3)c12 (centres unmarked)
6. N#Cc1cnn2cc(-c3cnn(C4CCN(C(=O)CN5CCC(c6ccc(NC7CCC(=O)NC7=O)cc6F)CC5)CC4)c3)cc(-c3ccc(N4CC5CCC(C4)N5Cc4ccccn4)nc3)c12 (centres unmarked)

< 100 nM
< 100 nM
< 100 nM
< 50 nM
< 100 nM
< 100 nM

Batch lookup, DC50 per entry.
1. CCC1(C(=O)NC(C)C)CCN(c2ccc(-c3cc(-c4cnn(C5CCN(C(=O)CN6CCN(c7ccc(NC8CCC(=O)NC8=O)cc7F)CC6)CC5)c4)cn4ncc(C#N)c34)cn2)CC1 (centres unmarked)
2. N#Cc1cnn2cc(-c3ccc(N4CCN(C(=O)CN5CCC(c6ccc(NC7CCC(=O)NC7=O)cc6F)CC5)CC4)cc3)nc(-c3ccc(N4CCN(C(=O)Cc5ccc(F)cn5)CC4)nc3)c12 (centres unmarked)

1: < 50 nM; 2: < 100 nM

---

# Target Or System: RET(KD: 658-1114 G810R) (Homo sapiens, UniProt P07949, G810R)
# Construct: 658-1114; expressed in transfected cells; host or cells: 293T.165 (293T cells, generated in-house)
# Sequence (P07949 658-1114 G810R): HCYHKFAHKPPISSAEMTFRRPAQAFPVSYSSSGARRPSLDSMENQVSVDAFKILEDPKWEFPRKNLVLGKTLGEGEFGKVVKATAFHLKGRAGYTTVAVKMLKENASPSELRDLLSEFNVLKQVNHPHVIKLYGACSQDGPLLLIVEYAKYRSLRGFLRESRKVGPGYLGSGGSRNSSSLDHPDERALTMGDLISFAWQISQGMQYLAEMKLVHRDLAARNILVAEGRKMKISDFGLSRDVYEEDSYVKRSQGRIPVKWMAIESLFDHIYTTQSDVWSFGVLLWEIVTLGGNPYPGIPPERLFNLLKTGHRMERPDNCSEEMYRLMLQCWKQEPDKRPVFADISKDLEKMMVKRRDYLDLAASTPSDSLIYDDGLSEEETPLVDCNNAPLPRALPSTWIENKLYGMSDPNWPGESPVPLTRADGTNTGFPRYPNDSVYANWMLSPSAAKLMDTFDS
# Protocol Notes: HiBiT-Degradation, RET G810R degradation assay (Nano-Glo HiBiT Lytic), 293T.165 cells
# Type: cell-based
# Recorded Conditions: RET G810R
# Protocol: Dulbecco's modified Eagle medium (DMEM) no-phenol red media and fetal bovine serum (FBS) were purchased from Gibco (Grand Island, NY, USA). […] RET wild-type (WT) and G810R degradation were assessed using the Nano-Glo® HiBiT Lytic assay (Promega, Medison, WI, USA). […] Luminescence signal was measured using an EnVision™ Multimode plate reader (Perkin Elmer, Santa Clara, CA, USA). […]
Parameter Measured: HiBiT-Degradation 293T.165 RET(KD: 658-1114 G810R) 6.0 hours (IP) [nM]

Item CCC1(C(=O)NC(C)C)CCN(c2ccc(-c3nc(-c4cnn(C5CCN(C(=O)CC6(O)CCN(c7ccc(NC8CCC(=O)NC8=O)c(F)c7)CC6)CC5)c4)cn4ncc(C#N)c34)cn2)CC1 (stereo not drawn) was tested on RET(KD: 658-1114 G810R) (Homo sapiens, UniProt P07949, G810R); the reported HiBiT-Degradation 293T.165 RET(KD: 658-1114 G810R) 6.0 hours (IP) [nM] is ++++ (< 50 nM = ++++)

Item CCC1(C(=O)NC2CCC2)CCN(c2ccc(-c3nc(-c4cnn(C5CCN(C(=O)CC6(O)CCN(c7ccc(NC8CCC(=O)NC8=O)cc7F)CC6)CC5)c4)cn4ncc(C#N)c34)cn2)CC1 (stereo not drawn) ; assay system RET(KD: 658-1114 G810R) (Homo sapiens, UniProt P07949, G810R); HiBiT-Degradation 293T.165 RET(KD: 658-1114 G810R) 6.0 hours (IP) [nM] reported as ++++ (< 50 nM = ++++)

// HiBiT-Degradation 293T.165 RET(KD: 658-1114 G810R) 6.0 hours (IP) [nM] (RET(KD: 658-1114 G810R) (Homo sapiens, UniProt P07949, G810R)) for CCC1(C(=O)NC(C)C)CCN(c2ccc(-c3nc(-c4cnn(CC5CCN(C(=O)CC6(O)CCN(c7ccc(NC8CCC(=O)NC8=O)cc7F)CC6)CC5)c4)cn4ncc(C#N)c34)cn2)CC1 (stereo not drawn) = ++++ (< 50 nM = ++++)
